Hello, the source for this data is the supplement of paper PMC4466140, in case you need it.

molecular target: ScBzz1-D1; assay: SPOT peptide array binding signal intensity (averaged, normalized) (arbitrary units (background-subtracted, floor 0; scale differs between SH3 domains)); higher = stronger binding of the SH3 domain to the peptide
Each record here notes measured SPOT peptide array binding signal intensity.
assayEndpoint: SPOT peptide array binding signal intensity

binder: DAPASKPSVPPRNYF
reportedValue: 20
//
binder: PKMLPIPSKPTLFDL
reportedValue: 9
//
binder: LEFRAILFIPKRAPF
reportedValue: 25.5
//
binder: PSTMDFPKLPSFQNS
reportedValue: 2
//
binder: DTIDNVKSKIQDKEG
reportedValue: 12
//
binder: ALFRLSFFFPLDPAY
reportedValue: 218
//
binder: LRIKRKPVQTFFEFI
reportedValue: 39.5
//
binder: EEEEEHPPLPARRKS
reportedValue: 16
//
binder: LKHGWKPLRPIKLIS
reportedValue: 6.5
//
binder: NGRRRPKFRVQLSGN
reportedValue: 41
//
binder: KNRKNLPTIPIRLSG
reportedValue: 35.5
//
binder: NRLRKRLNLPSEISI
reportedValue: 21
//
binder: KKAPPPVVKPKPRNF
reportedValue: 178
//
binder: KRKRRLPVSEDTNTK
reportedValue: 15.5
//
binder: SPLGAPPPPPHKDHL
reportedValue: 11
